Every entry's value here was drawn from ChEMBL document CHEMBL4513216.

# protocol.summary: Toxicity liver stage against HepG2, at 10uM
# Format: cell-based
# Set-up: test concentration 10 uM, cell line HepG2-A16-CD81EGFP
# conditions.used: human, HepG2-A16-CD81EGFP cells; read-out: INHIBITION

{"columns": ["molecule", "cytotoxicity at 10 µM [%]"],
 "data": [
  ["O=C(c1sccc1Cl)N1CCC(Cn2cc(CO)nn2)CC1", -7.12],
  ["CCOCC(=O)Nc1cc(-c2cccc(F)c2F)n[nH]1", 0.107],
  ["CCS(=O)(=O)N1C[C@H]2CN(Cc3cccc(C)c3)C(=O)[C@H]2C1", 2.9],
  ["Cc1noc(C(C)N2CCN(CCCN3CCCC3=O)CC2)n1 (stereo unspecified)", -2.73],
  ["COc1c(C)cc(S(=O)(=O)NCC2CNCCOC2)cc1C (stereo unspecified)", -3.53],
  ["CCc1ncc(C(=O)N2CC(N3CCCCC3)C2)cn1", -4.68],
  ["CCN1C(=O)CCC12CCCN(Cc1nccs1)C2 (stereo unspecified)", -73.5],
  ["CC(=O)N1[C@H](CN(C)C)C[C@@H]2CN(C(=O)Cc3cccs3)CC[C@@H]21", -0.155],
  ["COc1ccc(CNC(=O)Nc2cccnc2N2CCCC2)cc1OC", -24.6],
  ["CC(=O)c1cc(C(=O)N2CCN(C)Cc3ccccc32)n(C)c1", 7.85],
  ["CS(=O)(=O)N1CCCC(Cc2cncc(-c3ccccc3C(=O)O)n2)C1 (stereo unspecified)", -6.41]
]}

###

# reported cytotoxicity at 10 µM; entries follow
# protocol.summary: Toxicity liver stage against HepG2, at 10uM
# Type: cell-based
# Design: test concentration 10 uM, cell line HepG2-A16-CD81EGFP
# conditions.used: human, HepG2-A16-CD81EGFP cells; read-out: INHIBITION

{"columns": ["compound", "cytotoxicity at 10 µM [%]"],
 "data": [
  ["Cc1nc(CN2CCCN(Cc3nc4ccccc4o3)CC2)no1", 12.3],
  ["CN(C)CCCNC(=O)C(c1cccc(F)c1)N(C)C (centres undefined)", -4.58],
  ["CN1CCOCC12CCN(Cc1nccs1)CC2", 6.46],
  ["Fc1cc(F)cc(CN2CCC(c3cc4ncccc4cn3)CC2)c1", -1.13],
  ["COc1cccc2c1OCC(C(=O)NCc1nc3c(s1)CCCC3)C2 (centres undefined)", -43.3],
  ["CC(C)CNc1nc(C(=O)/N=c2\\[nH]nc(C(C)(C)C)s2)cs1", 9.6],
  ["Cc1nn(C)c2nc(N3CCCCC3c3ccc(F)cc3)sc12 (centres undefined)", -7.88],
  ["Cc1nn(C)c(C)c1C1CCCN1C(=O)c1nccnc1N (centres undefined)", -3.08],
  ["CC(C)c1nccn1C1CCCN(C(=O)c2ccc(=O)n(C)n2)C1 (centres undefined)", 7.8],
  ["COc1ccc2c(c1)C(=O)NC1(CC2)CCN(Cc2ccccc2)C1 (centres undefined)", 0.585],
  ["Cc1cc(C)n(C2CN(CC(O)c3ccc(F)cc3)C2)n1 (centres undefined)", -13],
  ["Cc1ccc(CC(=O)N2CCCCC2Cn2cccn2)cn1 (centres undefined)", -130],
  ["COc1cccc(CNCCc2cc(F)cc3c2OCOC3)c1OC", 4.32],
  ["O=S(=O)(NCc1ccc(S(=O)(=O)N2CCCC2)s1)c1ccc(F)cc1Cl", -39.9],
  ["Cc1sc(CN)nc1-c1ccc(Cl)cc1Cl", -1.14],
  ["CC(C)(C)CC(=O)NC[C@H]1OC[C@@H](NC2CCC(F)(F)CC2)[C@@H]1O", -1.23],
  ["Cc1cc(C(=O)CN2C(=O)c3ccccc3CS2(=O)=O)c(C)[nH]1", 13.5],
  ["CCOc1ccc(CC(CNC(=O)c2ccc(C)o2)C(N)=O)cc1 (centres undefined)", 3.58],
  ["Cc1nnc(NC(=O)NCc2ccc(OC(C)C)nc2)s1", -10.4],
  ["COCc1ncn2c1CN(C(=O)c1ccc3ccccc3n1)CC2", 8.42],
  ["Cc1cccc(-c2noc(CN3CCOC(Cn4cccn4)C3)n2)c1 (centres undefined)", -3.07],
  ["Cc1cc(SCC(N)=O)nc(-c2cccc(F)c2)n1", -1.9],
  ["COC(=O)CCNC(=O)c1cc(-c2ccc(OC)cc2)nn1C", 4.75],
  ["Cc1cc(=O)n(C)cc1NC(=O)Cc1cccc(Cl)c1", -12.8],
  ["CN1C(=O)c2ccc(C(=O)N(Cc3cnn(C)c3)C3CC3)cc2C1=O", 5.68],
  ["O=C(CCC1CCN(C(=O)c2cnco2)CC1)NCc1cccc(Cl)c1", -8.48],
  ["COc1c(Cl)cc(C(=O)NCc2n[nH]c(C)n2)cc1Cl", 1.42],
  ["Cn1nccc1-c1cnc2n1CCC21CCN(C(=O)C2(C)CC2)CC1", -123],
  ["CC(=O)N1CC[C@H](c2nc3cc(C)ccc3o2)C1", -4.13],
  ["COCCN1CCC(NCc2ccc(C#N)cc2)C1 (centres undefined)", -9.34],
  ["CS(=O)(=O)N1CCC2(CC1)COC(COc1cccnc1)C2 (centres undefined)", 7.61],
  ["O=C(Nc1cccnn1)NC(CCCO)c1ccccc1 (centres undefined)", -0.908],
  ["CC(c1nc(C2CC2)no1)N(C)Cc1ccc2c(c1)OCCO2 (centres undefined)", 0.611],
  ["CN(C)c1cc(NCc2cnc3n2CCN(CC2CC2)CC3)ncn1", -2.57],
  ["Cc1c[nH]nc1C1CCCN(C(=O)Cn2cccn2)C1 (centres undefined)", -14.5],
  ["CCSc1ccc(C(=O)N2CCC3(CCC(=O)N(C)C3)CC2)s1", -11.2],
  ["CNC(=O)C1(CCCc2cnccn2)CCN1CCc1ccccc1 (centres undefined)", -1.23],
  ["CCOc1ccc(C(=O)Nc2ccn(CC)n2)cc1", 3.16],
  ["Cn1nccc1C(=O)N1CCC(c2nnsc2S(C)(=O)=O)CC1", -4.22],
  ["CCc1nc2c(c(N3CCOCC3)n1)CCN(C(=O)N1CCCC1)CC2", 7.6],
  ["CC(C)NCc1nc(-c2ccc3c(c2)OCO3)c[nH]1", 6.24],
  ["COc1ccccc1C(C)(C)NC(=O)c1ccc(F)c(NC(C)=O)c1", -142],
  ["Brc1cccnc1OC1CCNCC1", -10.3],
  ["Cc1cc(N(C)CCOc2ccccc2F)nc(N)n1", 20.1],
  ["Cn1cnc2c1CCN(Cc1ccc(C(=O)N3CCCC3)cc1)C2", -8.62],
  ["COCCn1ccc2cc(NC(C)=O)ccc21", -12],
  ["CCC(CO)N(Cc1cccs1)C(=O)CNS(=O)(=O)c1cccs1 (centres undefined)", 4.98],
  ["c1cc2occc2c(N2CCCC(c3nncn3C3CC3)C2)n1 (centres undefined)", 1.97],
  ["Cc1n[nH]c(C)c1NC(=O)CN1CCCC1Cn1cncn1 (centres undefined)", 15.5]
]}

###

Each entry below lists one item and its recorded cytotoxicity at 10 µM value.
# protocol.summary: Toxicity liver stage against HepG2, at 10uM
# Assay type: cell-based
# Parameters: test concentration 10 uM, cell line HepG2-A16-CD81EGFP
# conditions.used: human, HepG2-A16-CD81EGFP cells; read-out: INHIBITION
reported.property: cytotoxicity at 10 µM (%)

{"columns": ["compound", "readout.units", "test.result"],
 "data": [
  ["CN(C)CC(=O)N1CC2(CCN(C(=O)Nc3ccccc3)C2)C1", "%", 4.17],
  ["Cc1ccc(CN(CCN(C)C)C(=O)Nc2ccc(C)c(C#N)c2)s1", "%", 5.57],
  ["COCCCN(Cc1ccncc1)C(=O)CSc1ccc(F)cc1", "%", 0.807],
  ["COCCC(=O)NCc1cccnc1-n1cnc2ccccc21", "%", -8.42],
  ["Cc1cc(=O)[nH]c(NCCNC(=O)C(c2ccc(F)cc2)N(C)C)n1 (stereo unspecified)", "%", -29.5],
  ["CCNC(=O)[C@@H]1C[C@H](N)CN1c1cc(C(F)(F)F)nc(N2CCCC2)n1", "%", -3.97],
  ["CC(=O)N1CCC2(CC1)CN(C)C(=O)C[C@H]2C(F)(F)F", "%", -161],
  ["c1cncc(OC[C@@H]2CCC[C@@]23CNCCO3)c1", "%", 10.5],
  ["CN(Cc1ccco1)C[C@H]1OC[C@@H]2CCN(Cc3ccccn3)C[C@@H]21", "%", -3.22],
  ["CS(=O)(=O)N1CCC2(CCCN(Cc3ccccn3)C2)CC1", "%", -121],
  ["CCC(NC(=O)c1cc(CC(C)C)nn1C)c1ccnn1C (stereo unspecified)", "%", -146]
]}
